The measurements presented in this section are drawn from ChEMBL document CHEMBL2424622.

MEASURED ON: Serine/threonine-protein kinase 32B (Homo sapiens)
ASSAY PROCEDURE: Competitive binding affinity to YANK2 (unknown origin) at 10 uM in presence of ATP relative to control
MEASUREMENT NAME: inhibition

Before answering, review these 3 worked examples.
[[record]]
smi = "O[C@H]1CC[C@H](Nc2nccc(-n3nnc4ccccc43)n2)CC1"
result = "< 50%"

[[record]]
smi = "O[C@H]1CC[C@H](Nc2nccc(-n3ncc4ccccc43)n2)CC1"
result = "< 50%"

[[record]]
smi = "O[C@H]1CC[C@H](Nc2nccc(-n3ccc4ccccc43)n2)CC1"
result = "< 50%"


Could you share which inhibition value was measured for `O[C@H]1CC[C@H](Nc2nccc(-c3n[nH]c4ccccc34)n2)CC1` ?
< 50%
